- Assay Summary: Clearance in Sprague-Dawley rat at 1 mg/kg, iv measured upto 24 hrs by LC-MS/MS analysis
- Type: ADME, organism-based
- Particulars: in vivo
Property Label: clearance (mL/min/kg)

1. CN1CCC([C@@](C)(O)c2ccc3cnc(Nc4cc(C(F)(F)F)ncc4F)cc3n2)CC1
2. CN1CCC([C@@](C)(O)c2ccc3cnc(Nc4cc(N5CCOCC5)ncc4F)cc3n2)CC1
Request: Which entry has a larger number for clearance, 1 or 2 ? Lab log: write the label of the selected item as the result.
Response: 2
(2: 53 mL/min/kg, 1: 12 mL/min/kg)

###

- Test Target: CDK7/Cyclin H/MNAT1 (Homo sapiens)
- Sequence (P51946 whole entry, the tested form may be a part): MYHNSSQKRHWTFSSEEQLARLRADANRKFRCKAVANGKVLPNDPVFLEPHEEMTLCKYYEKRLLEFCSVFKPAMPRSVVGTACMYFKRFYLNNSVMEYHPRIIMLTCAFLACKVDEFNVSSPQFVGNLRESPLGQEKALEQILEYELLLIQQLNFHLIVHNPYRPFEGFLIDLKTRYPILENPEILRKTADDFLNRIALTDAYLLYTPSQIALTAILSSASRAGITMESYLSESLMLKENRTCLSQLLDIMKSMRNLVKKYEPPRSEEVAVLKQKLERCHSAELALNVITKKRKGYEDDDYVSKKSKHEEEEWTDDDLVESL
- Sequence (P50613 whole entry, the tested form may be a part): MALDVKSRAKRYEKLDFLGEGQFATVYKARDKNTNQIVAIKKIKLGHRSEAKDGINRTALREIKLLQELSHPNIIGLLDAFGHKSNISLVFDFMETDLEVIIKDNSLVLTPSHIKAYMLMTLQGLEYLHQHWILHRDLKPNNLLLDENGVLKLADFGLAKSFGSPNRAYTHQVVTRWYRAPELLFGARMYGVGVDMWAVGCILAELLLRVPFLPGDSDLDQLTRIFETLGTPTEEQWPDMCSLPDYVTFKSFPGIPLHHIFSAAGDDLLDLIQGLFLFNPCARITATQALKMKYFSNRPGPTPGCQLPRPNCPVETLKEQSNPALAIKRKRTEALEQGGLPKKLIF
- Sequence (P51948 whole entry, further chain, the tested form may be a part): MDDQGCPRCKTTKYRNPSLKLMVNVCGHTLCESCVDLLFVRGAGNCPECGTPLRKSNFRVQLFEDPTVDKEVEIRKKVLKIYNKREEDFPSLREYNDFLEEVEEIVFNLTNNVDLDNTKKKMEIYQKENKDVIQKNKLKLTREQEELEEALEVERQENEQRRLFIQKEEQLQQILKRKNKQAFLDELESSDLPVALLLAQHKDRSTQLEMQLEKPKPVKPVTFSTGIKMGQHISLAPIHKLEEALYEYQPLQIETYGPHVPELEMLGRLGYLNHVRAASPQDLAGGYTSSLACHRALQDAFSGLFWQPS
- Assay Summary: Inhibition of full length N-terminal GST fused human CDK7 (1 to 346 residues)/CyclinH (1 to 323 residues)/ MAT1 (1 to 309 residues) expressed in baculovirus expression system using FL peptide as substrate preincubated for 30 mins followed by substrate addition and further incubated for 90 mins by EZ reader method
pIC50: −log10 of the molar value.
Property Label: pIC50

Answered examples (3):
CN1CCC([C@@](C)(O)c2ccc3cnc(Nc4cc(N5CCCC5)ncc4F)cc3n2)CC1; 7.02
OCc1ccn(-c2ccc(Nc3cc4nc(OC5CCNCC5)ccc4cn3)c(F)c2)n1; 7.06
CC(C)Nc1cc(Nc2cc3nc([C@](C)(O)C4CCN(C)CC4)ccc3cn2)c(F)cn1; 6.11

P. CC(C)c1cc(Nc2cc3nc([C@](C)(O)C4CCN(C)CC4)ccc3cn2)c(F)cn1
Q. CN1CCC([C@@](C)(O)c2ccc3cnc(Nc4cc(N5CCOCC5)ncc4F)cc3n2)CC1
Request: Sorting ascending by pIC50, which comes first: P or Q ? To answer, give the label that identifies your chosen option.
Response: P
(P: 6.83, Q: 7.11)

###

- Assay Summary: AUC (0 to 24 hrs) in Sprague-Dawley rat at 10 mg/kg, po measured upto 24 hrs by LC-MS/MS analysis
- Format: ADME, organism-based
- Set-up: route oral, dose 10 mg/kg, time <=24
- Particulars: in vivo
Property Label: AUC(0-t) (ng·h/mL)
Quick reminder: number only, in ng·h/mL, skip the unit.

Request: Field request: AUC(0-t) | item: `CN1CCC([C@@](C)(O)c2ccc3cnc(Nc4cc(C(F)(F)F)ncc4F)cc3n2)CC1`
Response: 5320

###

- Assay Summary: Oral bioavailability in Sprague-Dawley rat at 10 mg/kg measured upto 24 hrs by LC-MS/MS analysis
- Assay type: ADME, organism-based
- Particulars: in vivo
Property Label: bioavailability (%)
Report the figure in % without appending any unit label.

Request: Give the measured bioavailability of `CN1CCC([C@@](C)(O)c2ccc3cnc(Nc4cc(C(F)(F)F)ncc4F)cc3n2)CC1` .
Response: 41

###

- Test Target: Cyclin-dependent kinase 5/CDK5 activator 1 (Homo sapiens, UniProt Q00535)
- Sequence (Q00535 whole entry, the tested form may be a part): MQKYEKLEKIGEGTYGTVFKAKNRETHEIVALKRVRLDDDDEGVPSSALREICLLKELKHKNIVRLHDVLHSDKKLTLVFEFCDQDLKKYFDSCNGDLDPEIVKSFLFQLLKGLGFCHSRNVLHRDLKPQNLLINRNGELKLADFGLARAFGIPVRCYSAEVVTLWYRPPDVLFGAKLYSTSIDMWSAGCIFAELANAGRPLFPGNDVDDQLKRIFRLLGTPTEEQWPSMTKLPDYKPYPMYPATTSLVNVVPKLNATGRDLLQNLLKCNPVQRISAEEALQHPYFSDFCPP
- Sequence (Q15078 whole entry, further chain, the tested form may be a part): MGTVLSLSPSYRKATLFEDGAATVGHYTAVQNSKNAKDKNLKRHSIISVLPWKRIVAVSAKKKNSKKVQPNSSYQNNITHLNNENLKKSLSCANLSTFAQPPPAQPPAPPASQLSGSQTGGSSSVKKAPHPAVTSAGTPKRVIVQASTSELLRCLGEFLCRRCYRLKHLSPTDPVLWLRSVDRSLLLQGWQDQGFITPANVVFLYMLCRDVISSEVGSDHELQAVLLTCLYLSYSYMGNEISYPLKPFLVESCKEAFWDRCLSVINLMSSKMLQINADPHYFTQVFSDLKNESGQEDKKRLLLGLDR
- Assay Summary: Inhibition of Nano-Luc fused human full length CDK5/P35 transfected in HEK293 cells incubated for 1 hr by NanoBRET assay
- Format: cell-based
pIC50: −log10 of the molar value.
Property Label: pIC50

CN1CCC([C@@](C)(O)c2ccc3cnc(Nc4cc(N5CCOCC5)c(C#N)cc4F)cc3n2)CC1; 9.00
CC(=O)N1CCN(c2ccc(F)c(Nc3cc4nc([C@](C)(O)C5CCN(C)CC5)ccc4cn3)c2)CC1; 8.43
CN1CCC([C@@](C)(O)c2ccc3cnc(Nc4ccc(-c5cccn(C)c5=O)cc4F)cc3n2)CC1; 8.92

I. CN1CCC([C@@](C)(O)c2ccc3cnc(Nc4cc(N5CCOCC5)ncc4F)cc3n2)CC1
II. CN1CCC([C@@](C)(O)c2ccc3cnc(Nc4cc(N5CCOCC5)ccc4F)cc3n2)CC1
Request: Hi, I'm comparing two records. Which one has the lower pIC50, I or II ? # answer = label of selected item
Response: I
